Where do these numbers come from? They come from PubChem BioAssay (NCI).

# Test system: HOP-92 NSCLC
# ASSAY REMARKS: NCI-60 one-dose screen, 48 h
# REPORTED CONDITIONS: 10 µM unless noted
This is part of a sample that, as a whole, favours compounds with a hit. Of some 83,000 tested, about 20% had one in any assay. Active and inactive are the calls of the source. Rule for the calls: active = growth percent below 10; inactive = the rest.
Possible outcomes: yes (1) = active, no (0) = inactive

MOLECULE	ASSIGNED CLASS
CC(=O)c1c(C)[nH]c(-c2nc3ccc(N4CCN(C)CC4)cc3[nH]2)c1-c1ccc(N(C)C)cc1	no (0)
COc1cnc2c(c1)C(=O)c1c-2n(CCCNC(C)C)c(=O)c2cc([N+](=O)[O-])ccc12	yes (1)
CCNCCCn1c2c(c3ccc([N+](=O)[O-])cc3c1=O)C(=O)c1cc(OC)cnc1-2	yes (1)
CC(C)/C=C/CC[C@](C)(O)[C@H]1CC[C@]2(C)[C@@H]1CC[C@@H]1[C@@]3(C)C/C(=C/c4cccc(C(F)(F)F)c4)C(=O)C(C)(C)[C@@H]3CC[C@]12C	no (0)
C[Si](C)(C)Cc1ccccc1	no (0)
CC1(C)C=CC[C@]2(C)[C@H]3CC[C@@H]4[C@H]5[C@H](C(=O)/C=C/c6cccnc6)CC[C@]5(CO)CC[C@@]4(C)[C@]3(C)CC[C@@H]12	yes (1)
Cc1cc(N2CCCCC2)nc(N(CCCNc2ccnc3cc(Cl)ccc23)Cc2ccco2)n1	yes (1)
O=Cc1nc2ccccc2[nH]1	no (0)
CC(=O)O[C@H]1CC[C@@]2(C)[C@@H](CC[C@@H]3[C@@H]2CC(=O)[C@@]2(C)[C@H]3C[C@@H](C3CCCC3=O)[C@@H]2C(C)=O)C1 (some centres not stated)	no (0)
O=S(=O)(NCCNc1cc(-c2cn(-c3ccccc3)nc2-c2cccc(O)c2)ccn1)c1cccc(F)c1	no (0)
CCCCC[C@H]1CC=C2C(=O)C=C[C@@H]2CC=CCCCC(=O)O[C@@H](CCCCC)CC=C2C(=O)C=C[C@@H]2CC=CCCCC(=O)O[C@@H](CCCCC)CC=C2C(=O)C=C[C@@H]2CC=CCCCC(=O)O1	yes (1)
COc1ccc(C(=O)c2ccc(C)cc2)c(OC)c1OC	no (0)
Brc1ccc2[nH]cc(-c3nc(-c4c[nH]c5ncccc45)cs3)c2c1	no (0)
O=C1c2ccccc2NC(c2cn(-c3ccccc3)nc2-c2cccnc2)N1Cc1ccccc1 (configuration not stated)	no (0)
O=C(O[C@@H]1Cc2c(O)cc(O)cc2O[C@@H]1c1cc(O)c(O)c(O)c1)c1cc(O)c2c(c1)OCO2	no (0)
O=C1CN(c2ccccc2)C(=O)C1C(=O)Nc1ccc(Cl)c(Cl)c1 (configuration not stated)	no (0)
COc1cc(-c2cc(-c3nc4ccccc4[nH]3)[nH]n2)cc(OC)c1OC	no (0)

* * *

# System: RXF 393 renal
# ASSAY REMARKS: NCI-60 one-dose screen, 48 h (100 = growth as untreated, 0 = no growth, -100 = all killed)
# REPORTED CONDITIONS: 10 µM unless noted
This is part of a sample that, as a whole, favours compounds with a hit. Of some 83,000 tested, about 20% had one in any assay.
MEASUREMENT LABEL: growth (%)

> print(dat)
                                    compound  recorded.value
 1  COc1ccc(/C=C(\C#N)c2cc3ccccc3n2C(C)=O)cc1            88.3
 2          O=C(O)/C(=C/c1ccc(O)cc1)c1ccccc1            70.6
 3  Cc1ccc(-c2nc([P+](c3ccccc3)(c3ccccc3)c3ccccc3)c(N3CCOCC3)o2)cc1           -1.34
 4  N#Cc1c(-c2ccc(O)cc2)c2c(N)nn(-c3ccccc3)c2[nH]c1=O             113
 5  Cn1cc(-c2csc(-c3cn(CCN)c4ccc(F)cc34)n2)c2cccnc21            82.6
 6  COc1cccc(-c2nn(-c3ccccc3)cc2-c2ccnc(NCCNS(=O)(=O)c3ccc(Cl)cc3)c2)c1            29.8
 7  NCCn1cc(-c2nc(-c3c[nH]c4ncccc34)cs2)c2cc(F)ccc21            86.7
 8  COc1cc2nc(Cl)nc(Nc3cccc(C(=O)/C=C/c4ccc(F)cc4)c3)c2cc1OC            69.4
 9   Brc1ccc(Cn2nnnc2-c2ccn(-c3ccccc3)n2)cc1            87.1
10  C=C(C)[C@@H]1CC[C@]2(C(=O)O)CC[C@]3(C)[C@H](CC[C@@H]4[C@@]5(C)C/C(=C/c6ccc(OC)cc6)C(=O)C(C)(C)[C@@H]5CC[C@]43C)[C@@H]12            43.9
11  Cc1ccc(-c2ccc(/C=C(\C#N)c3nc(-c4ccco4)cs3)o2)cc1             136
12  COc1cc(/C=N/NC(=S)NNC(=S)NC2CCCCC2)cc(OC)c1OC            95.6
13  N#CC1=C(N)Oc2ccc3ccccc3c2C1c1ccccc1Cl (stereo not given)            58.7
14  N#Cc1cnc2cc(OC[C@@H](O)CO)c(NC(=O)CC3CSSC3)cc2c1Nc1ccc(OCc2cccc(F)c2)c(Cl)c1           -72.9
15  COC(=O)C(Cc1ccccc1)n1cc(COc2nc(Cl)nc(Nc3ccc(Cl)cc3)n2)nn1 (stereo not given)             101
16    COc1cc(-c2cc3cc(O)ccc3oc2=O)cc(OC)c1OC             101
17  O=C1c2ccccc2NC(c2cn(-c3ccccc3)nc2-c2cccs2)N1Cc1ccccc1 (stereo not given)            94.5
18                           Cc1ccncc1C(=O)O             118
19  C/C(=N\NC(=O)C(C)SC(C)C(=O)N/N=C(\C)c1cccnc1)c1cccnc1 (stereo not given)             130
20  c1ccc(CN2C(c3ccccc3)=Nc3ccccc3C2c2c[nH]c3ccccc23)cc1 (stereo not given)            42.9
